System: PfAP2-EXP AP2 domain (GST-tagged)
TEST METHOD NOTES: gcPBM binding intensity (ln(normalized median fluorescence intensity)); higher = stronger DNA binding
In all, about 25,000 sequences were measured (“ln(normalized median fluorescence intensity)”: median about 8.6, highest 2% from about 10 on). The list comes from a sample in which the highest values are over-represented; it also holds close analogues and randomly drawn sequences.
PROPERTY: gcPBM binding intensity (ln)

GTGTTTTTTTTAGATTGTACATATATATATATATAT [XGTACX_site4562] = 10.3
AAAAAAAACAGACACACACACATACAAAATATATAT [CACACA_site1449] = 8.73
TTTATATTGTTTTATTGTACATATATATTTATACAT [XGTACX_site6821] = 8.81

Task: Report gcPBM binding intensity (ln) for ATATATATATATATATGTACATACATATTGTTTGGT [XGTACX_site2284] please.
Output: 10.3

Task: Which measured gcPBM binding intensity (ln) value corresponds to ATATATATATATATATGTACATATTTTTGTTTGATG [XGTACX_site51] ?
Output: 10.2

====

Recorded gcPBM binding intensity (ln), one value per entry.
Tested on: PfAP2-EXP AP2 domain (GST-tagged)
TEST METHOD NOTES: gcPBM binding intensity (ln(normalized median fluorescence intensity)); higher = stronger DNA binding
The full ranking holds about 25,000 sequences; the median of “ln(normalized median fluorescence intensity)” is about 8.6, and the highest 2% start at about 10. The sample holds the highest values, similar sequences and a random draw of the others, so the mix is not that of the screen.
Just the number, please, no unit attached.

CTTAATATTCTTTAAAGTACACAAAATAAGAATATA [XGTACX_site5489] = 8.87
ATATAGAACACCTGTGCATGCAAGTGCTAAAAAATT [TGCATGCA_site213] = 10.2
AACCAAATTTCACCATGTACATATTGATAAATATAT [XGTACX_site1374] = 8.7
AACATAACAAAAAAAAAAAAAAATATATATATATAT [TGCATGCA_negctrl_site370] = 10.2
CCTTACTTCTTATAAAGTACCCAATGATATACATTA [XGTACX_site1554] = 8.41
ACAAAAAAATAAAATATATATATATATATAATATAT [CACACA_negctrl_site805] = 8.58
ACACATATATATTATTATTATATAATATATATATAT [CACACA_negctrl_site1545] = 9.21
TAATTTTAAATATCTTCACACATTATATTTTTATAT [CACACA_site5411] = 8.34
ATCATGTTATATACATGTACATATATATATATATAT [XGTACX_site1329] = 10.2
TTTTCCAGTAAATATTTTTTTATAATATTTATATAT [CACACA_negctrl_site387] = 8.3

Task: Can you share its gcPBM binding intensity (ln)? I mean this sequence: TGCATTTATATCTTCACACATATATATATATATATA [CACACA_site4516]
Output: 10.2

Task: Request the reported gcPBM binding intensity (ln) associated with ATATAATATTTCATGTGGACACATTTTATGATTGTA [XGTACX_site8770]
Output: 8.74

Task: So what's the measured gcPBM binding intensity (ln) for this one? TACAGACATACATACACACATACATATATATATATA [CACACA_site1940]
Output: 10.1

Task: Tell me the measured gcPBM binding intensity (ln) of AAAAAAAAATTATTCACACATATATATATATATATA [CACACA_site5579] , please.
Output: 10.2

Task: // gcPBM binding intensity (ln) lookup, key: TATGTATCAAATAAATGTACATATATATATATATAT [XGTACX_site2189]
Output: 10.1

Task: Would you mind telling me what gcPBM binding intensity (ln) value was observed for ATATATATATATATGTGTACATATTTTTTTGAAGTG [XGTACX_site248] ?
Output: 10.1

Task: Data request, read-out gcPBM binding intensity (ln), for ATATATATATACATATGTACATATATATTTATACAT [XGTACX_site2463]
Output: 9.64

Task: Fill in: gcPBM binding intensity (ln) of AAATAAATAAATATACGTACATATATATAATATATA [XGTACX_site5124] is ___
Output: 8.52

====

Here the recorded gcPBM binding intensity (ln) is given for each entry.
Tested on: PfAP2-EXP AP2 domain (GST-tagged)
TEST METHOD NOTES: gcPBM binding intensity (ln(normalized median fluorescence intensity)); higher = stronger DNA binding
Whole data set: some 25,000 sequences, median “ln(normalized median fluorescence intensity)” near 8.6, cut for the highest 2% near 10. This is one part of a sample in which the highest values are shown more often than they occur.
Enter a number only.

Task: Requested read-out gcPBM binding intensity (ln), target or system PfAP2-EXP AP2 domain (GST-tagged), entry TTTTGTTTGTTCGTGACTACATTATGTTGTAAATAC [CACACA_negctrl_site604]
Output: 8.78

Task: Could you share what gcPBM binding intensity (ln) was measured for AAAAAGGTTATTGGTACACACATATGTATATATATA [CACACA_site552] , tested on PfAP2-EXP AP2 domain (GST-tagged)?
Output: 9.3

Task: Lab note: need gcPBM binding intensity (ln) for TTGGTATAAAATTATAGTACATAAGGTAAATATAAA [XGTACX_site4698] on PfAP2-EXP AP2 domain (GST-tagged), anyone have it?
Output: 8.56

Task: What gcPBM binding intensity (ln) appears in the records for this sequence with PfAP2-EXP AP2 domain (GST-tagged)? TTTCATTAATCTAATAGTACAGAAAATTGAGAAAAA [XGTACX_site8395]
Output: 8.72

Task: Give gcPBM binding intensity (ln) (PfAP2-EXP AP2 domain (GST-tagged)) of the following sequence: TCTATTAATGAATATACACACATTATATATATATAT [CACACA_site5410]
Output: 10

====

Test system: PfAP2-EXP AP2 domain (GST-tagged)
TEST METHOD NOTES: gcPBM binding intensity (ln(normalized median fluorescence intensity)); higher = stronger DNA binding
The full ranking holds about 25,000 sequences; the median of “ln(normalized median fluorescence intensity)” is about 8.6, and the highest 2% start at about 10. What follows is part of a selection rich in the highest values, with near analogues and random picks from the rest.
Collected gcPBM binding intensity (ln) values appear next to each entry.
Enter the number alone.

GTTTGGTGGTGTTTTGGTACGTACGGGGGTGTATGT [XGTACX_site1211] = 9.66

Task: So what does the record say about gcPBM binding intensity (ln) for AAAAAAAAAAAAAACACACACATATAATATATTTAA [CACACA_site1337] ?
Output: 8.35

Task: Please give the measured gcPBM binding intensity (ln) for this sequence: TATGATTTTTATATATGTACGTATGGTGTTTTACAA [XGTACX_site6100]
Output: 8.8

Task: May I ask what gcPBM binding intensity (ln) has been recorded for TATATATATATATATTTTTTTTTTTTATGCACATGG [CACACA_negctrl_site1573] ?
Output: 10.1

Task: Which measured gcPBM binding intensity (ln) value corresponds to GATTATTTTATAAGTACACACATTTATATATAATAA [CACACA_site2573] ?
Output: 8.41

Task: # lookup: gcPBM binding intensity (ln) of ATTTTGTTATGAAACACACACATATAAATATAAATA [CACACA_site7679]
Output: 8.51

====

System: PfAP2-EXP AP2 domain (GST-tagged)
TEST METHOD NOTES: gcPBM binding intensity (ln(normalized median fluorescence intensity)); higher = stronger DNA binding
Over roughly 25,000 sequences, “ln(normalized median fluorescence intensity)” has its median near 8.6; the highest 2% begin near 10. Shown is part of a subset that was picked to be rich in the highest values.
PROPERTY: gcPBM binding intensity (ln)
Just the number, please, no unit after it.

Task: Give its gcPBM binding intensity (ln) value. Item: CTAACAACCAAACGCACACACACAAAAAAAAAAATA [CACACA_site400]
Output: 8.48

Task: Look up gcPBM binding intensity (ln) for this sequence: TTTATAATAAAATTTTTACACACTTTAAAAAAAAAA [CACACA_site8070]
Output: 8.07

====

Tested on: PfAP2-EXP AP2 domain (GST-tagged)
TEST METHOD NOTES: gcPBM binding intensity (ln(normalized median fluorescence intensity)); higher = stronger DNA binding
Whole data set: some 25,000 sequences, median “ln(normalized median fluorescence intensity)” near 8.6, cut for the highest 2% near 10. The sample as a whole holds a higher share of the highest values than the screen did.
Classification field: enter True for gcPBM binding intensity (ln) values not below 9, False for values below it.

AAAAAAAAAAAAAAAACACACATACACCCCCACCCA [CACACA_site9117] = True
AAAAGGAACAGACACACACACATATATATATATATA [CACACA_site3587] = True
AAAAAAAAAAAACACACACACATATATATATATATA [CACACA_site732] = True

# evaluate next
Task: Does the reported gcPBM binding intensity (ln) for TTAACTCAAGAGTGTACACATATATATATATATATA [CACACA_site4334] fall at or above the 9 mark?
Output: True
